Attribution: patent USRE36374E

biological target: central cholinergic receptors; experiment: 3H-oxotremorine-M (Oxo-M) displacement from rat brain homogenates; settings: displacement of 3H-oxotremorine-M, pH 7.4, 40 min, 30° C
Where a name gives a salt, the structure may show the parent alone.
MEASUREMENT_TYPE: IC50 (nM)

Answered examples (5):
| COMPOUND | IC50 [nM] |
| --- | --- |
| Cc1cc(C2=CCCN(C)C2)nn1C [Compound 95, dihydrochloride] | 350 |
| CC1C=C(c2nnn(C)n2)CNC1 (centres unmarked) [Compound 47, hydrobromide] | 98 |
| CC(C)n1nnc(C2=CCCNC2)n1 [Compound 17, hydrobromide] | 280 |
| CCn1nnc(C2=CCCNC2)n1 [Compound 19, hydrobromide] | 32 |
| CN1CCCC(c2nnn(C)n2)C1 (centres unmarked) | 1700 |

I. CC1CC=C(c2nnn(C)n2)CN1C (centres unmarked)
II. CN1CCC=C(C2=NC(C)(C)CO2)C1
III. CCn1nnc(C2=CCCN(C)C2)n1 [Compound 20, oxalate]
Req: Task field, ranking: reported IC50, descending order. Answer by naming the labels in the order asked.
Resp: I, II, III
(I: 310 nM, II: 130 nM, III: 16 nM)

----------
molecular target: central cholinergic receptors; assay: 3H-oxotremorine-M (Oxo-M) displacement from rat brain homogenates; conditions: displacement of 3H-oxotremorine-M, pH 7.4, 40 min, 30° C
Where a name gives a salt, the structure may show the parent alone.
MEASUREMENT_TYPE: IC50 (µM)

| COMPOUND | QUANTITY_UNIT | IC50 |
| --- | --- | --- |
| Cn1nnc(C2CCCNC2)n1 (stereo not drawn) [Compound 13, hydrochloride] | µM | 0.047 |

1. CSc1cnc(C2=CCCN(C)C2)s1 [Compound 93, fumarate]
2. CN1CCC=C(c2nnn(C)n2)C1
Req: Hi, I'm comparing 1 with 2 and wondering which one has the bigger number for IC50. Any idea? To answer, give the label that identifies your chosen option.
Resp: 1
